# study-target: Neurotensin receptor type 1 (Rattus norvegicus)
# Sequence (P20789 whole entry): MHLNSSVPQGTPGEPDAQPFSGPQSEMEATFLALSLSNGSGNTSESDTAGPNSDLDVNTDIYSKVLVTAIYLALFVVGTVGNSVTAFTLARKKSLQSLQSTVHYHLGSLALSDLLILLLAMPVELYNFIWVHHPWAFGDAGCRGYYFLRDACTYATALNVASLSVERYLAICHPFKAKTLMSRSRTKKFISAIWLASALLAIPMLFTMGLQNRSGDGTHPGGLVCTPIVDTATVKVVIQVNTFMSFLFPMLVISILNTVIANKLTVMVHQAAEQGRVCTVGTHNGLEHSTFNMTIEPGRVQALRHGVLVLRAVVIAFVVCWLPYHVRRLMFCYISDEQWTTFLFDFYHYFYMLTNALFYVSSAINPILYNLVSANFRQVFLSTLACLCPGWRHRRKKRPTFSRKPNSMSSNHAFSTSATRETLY
# test-method-notes: IC50 was measured as binding to rat cortex membranes using [3H]- NT (neurotensin) as tracer
pIC50: −log10 of the molar value.
readout: pIC50

[A] CC[C@H](C)[C@H](NC(C#N)[C@H](Cc1ccc(O)cc1)NC(=O)C1CCCN1C(=O)[C@H](CCCN=C(N)N)NC(=O)[C@@H](N)CCCN=C(N)N)C(=O)N[C@@H](CC(C)C)C(=O)O (some centres not stated)
[B] CC[C@H](C)[C@H](NC(C#N)[C@@H](Cc1ccc(O)cc1)NC(=O)[C@@H]1CCCN1C(=O)[C@H](CCCN=C(N)N)NC(=O)[C@@H](N)CCCN=C(N)N)C(=O)N[C@@H](CC(C)C)C(=O)O (some centres not stated)
Query :: Would you let me know which has the greater pIC50 value, A or B ? Respond with the label that goes with your answer.
Result :: B
(B: 6.74, A: 5.00)
